Data origin, for the record: paper PMC12567398

# test_method_notes: Neutral Red uptake cell viability assay, P3HR-1
# condition_context: human
observation_type: CC50 at 10 d

CC50 at 10 d in this record for CC(C)OC(=O)[C@H](C)N[P@](=O)(CO[C@H](C)Cn1cnc2c(N)ncnc21)Oc1ccccc1 [TAF, tenofovir alafenamide] : > 100 µM

###

# measured_on: MHV-68-Luc
# test_method_notes: MHV-68-Luc luciferase reporter assay
# Type: cell-based, murine herpesvirus 68
# condition_context: Table S1; MEF; read-out: antiviral EC50, MHV-68 (MEF)
observation_type: EC50 (µM)
Use µM as the unit, but write only the number.

EC50 in this record for Cn1ncc2cc(-c3cnc(N)c(Cl)c3N3CCC4(CCNC4=O)CC3)ccc21 : 0.01

###

# Test system: SARS-CoV-2 d6-YFP
# test_method_notes: microbe, parasite or virus in culture
# condition_context: Severe acute respiratory syndrome coronavirus 2, Caco-2, read-out: antiviral EC50, SARS-CoV-2
observation_type: pEC50
Give only the number. pEC50 is defined as minus log10 of concentration in molar units.

pEC50 in this record for CN(C)C(=O)Cn1cc(-c2ccc(-c3cncc4ccccc34)cc2)cn1 : 4.64

###

# Test system: HHV-6A-GFP
# test_method_notes: HHV-6A plaque reduction assay in HFFs
# condition_context: Human betaherpesvirus 6A, read-out: antiviral EC50, HHV-6A (HFF)
observation_type: EC50 (nM)
Use nM as the unit, but write only the number.

EC50 in this record for CN(C)C(=O)Cn1cc(-c2ccc(-c3cncc4ccccc34)cc2)cn1 : 300

###

# System: P3HR-1 cells
observation_type: CC50

>>> df
                                   molecule  assay_result
0  Cc1n[nH]c2ncc(C(=O)N3CCC[C@H]3c3ccc(Cl)cc3)cc12 [MSC-2530818]      > 100 µM

CC50 in this record for Cn1ncc2cc(-c3cnc(N)c(Cl)c3N3CCC4(CCNC4=O)CC3)ccc21 [CCT-251921] : > 100 µM

###

System: Vero cells | Read-out: CC50

>>> print(df.to_string())
                         chemical_structure  assay_result
0  Cc1n[nH]c2ncc(C(=O)N3CCC[C@H]3c3ccc(Cl)cc3)cc12      > 100 µM

CC50 in this record for Cn1ncc2cc(-c3cnc(N)c(Cl)c3N3CCC4(CCNC4=O)CC3)ccc21 : > 100 µM

###

# test_method_notes: Neutral Red uptake cell viability assay, Vero
# condition_context: African green monkey, CC50, Vero; reference compounds (Fig 1E)
observation_type: CC50 at 7 d (nM)
Use nM as the unit, but write only the number.

CC50 at 7 d in this record for CCCCCCCCCCCCCCCCOCCCOP(=O)(O)CO[C@H](CO)Cn1ccc(N)nc1=O : 1300

###

# Test system: Caco-2 cells
# test_method_notes: Neutral Red uptake cell viability assay, Caco-2
# condition_context: read-out: mean CC50; Caco-2 (Fig 7D)
observation_type: CC50

CC50 in this record for O=c1nc(NO)ccn1[C@@H]1O[C@H](CO)[C@@H](O)[C@H]1O : > 100 µM

###

// values below are reported CC50 at 7 d
# test_method_notes: Neutral Red uptake cell viability assay, MEF
# condition_context: mouse

Past entries and their recorded results:
>>> print(df.to_string())
                         chemical_structure  observation_type  assay_result
0  CCCCCCCCCCCCCCCCOCCCOP(=O)(O)CO[C@H](CO)Cn1ccc(N)nc1=O       CC50 at 7 d       > 10 µM
1                           O=C(O)P(=O)(O)O       CC50 at 7 d     > 1000 µM
2  CC(C)Nc1nc2cc(Cl)c(Cl)cc2n1[C@H]1O[C@@H](CO)[C@H](O)[C@@H]1O       CC50 at 7 d        179 µM

CC50 at 7 d in this record for CN(C)C(=O)Cn1cc(-c2ccc(-c3cncc4ccccc34)cc2)cn1 : > 100 µM

###

System: Caco-2 cells | Read-out: CC50

>>> df
                         chemical_structure   measured_on  observation_type  assay_result
0  Cc1n[nH]c2ncc(C(=O)N3CCC[C@H]3c3ccc(Cl)cc3)cc12  Caco-2 cells              CC50      > 100 µM

Moving on to another molecule below.
CC50 in this record for Cn1ncc2cc(-c3cnc(N)c(Cl)c3N3CCC4(CCNC4=O)CC3)ccc21 : > 100 µM

###

# Test system: HCMV AD169-GFP
# test_method_notes: HCMV time-of-addition reporter assay in HFFs, AD169-GFP
# condition_context: read-out: AD169-GFP EC50, drug addition 1 d p.i., readout 7 d p.i.
observation_type: EC50 (nM)
Use nM as the unit, but write only the number.

EC50 in this record for Cn1ncc2cc(-c3cnc(N)c(Cl)c3N3CCC4(CCNC4=O)CC3)ccc21 : 3.2

###

# test_method_notes: Neutral Red uptake cell viability assay, HFF
# condition_context: human, CC50, HFF; listed with qPCR / HFF (Fig 1E)
observation_type: CC50

CC50 in this record for CN(C)C(=O)Cn1cc(-c2ccc(-c3cncc4ccccc34)cc2)cn1 [BI-1347] : > 50 µM

###

# test_method_notes: Neutral Red uptake / Alamar Blue cell viability assay, 293T
# condition_context: human
observation_type: CC50 at 2 d (µM)
Use µM as the unit, but write only the number.

CC50 at 2 d in this record for CN(C)C(=O)Cn1cc(-c2ccc(-c3cncc4ccccc34)cc2)cn1 : 93

###

# measured_on: MHV-68-Luc
# test_method_notes: MHV-68-Luc luciferase reporter assay
# Type: cell-based, murine herpesvirus 68
# condition_context: Table S1; Vero; read-out: antiviral EC50, MHV-68 (Vero)
observation_type: EC50 (nM)
Use nM as the unit, but write only the number.

EC50 in this record for Cn1ncc2cc(-c3cnc(N)c(Cl)c3N3CCC4(CCNC4=O)CC3)ccc21 : 2

###

# Tested on: Epstein–Barr virus P3HR-1
# test_method_notes: EBV lytic assay in TPA-induced P3HR-1 cells, qPCR
# Assay type: cell-based
# condition_context: human gammaherpesvirus 4, 240 h; EBV; TPA-induced P3HR-1, 10 d; read-out: Antiviral mean EC50 based on qPCR measurements
observation_type: pEC50
Give only the number. pEC50 is defined as minus log10 of concentration in molar units.

            chemical_structure  assay_result
0  Nc1ncnc2c1ncn2CCOCP(=O)(O)O          4.89

Moving on to another compound below.
pEC50 in this record for CC(C)(C)C(=O)OCOP(=O)(COCCn1cnc2c(N)ncnc21)OCOC(=O)C(C)(C)C : 5.77

###

# test_method_notes: Neutral Red uptake cell viability assay, COS-7
# condition_context: African green monkey, CC50, COS-7; listed with GFP / COS-7 (Fig 1E)
observation_type: CC50 at 4 d (µM)
Use µM as the unit, but write only the number.

CC50 at 4 d in this record for CCCCCCCCCCCCCCCCOCCCOP(=O)(O)CO[C@H](CO)Cn1ccc(N)nc1=O : 9.8

CC50 at 4 d in this record for Nc1ccn(C[C@@H](CO)OCP(=O)(O)O)c(=O)n1 : 85.6

###

# Test system: Epstein–Barr virus P3HR-1
# test_method_notes: EBV lytic assay in TPA-induced P3HR-1 cells, qPCR
# Type: cell-based
# condition_context: human gammaherpesvirus 4, P3HR-1; Table S1; read-out: antiviral EC50, EBV
observation_type: EC50 (µM)
Use µM as the unit, but write only the number.

Entry CN(C)C(=O)Cn1cc(-c2ccc(-c3cncc4ccccc34)cc2)cn1 , tested on Epstein–Barr virus P3HR-1, has a reported EC50 of 5.5

###

// values below are reported CC50
# test_method_notes: in vitro
# condition_context: human

                         chemical_structure  assay_result
0  CN(C)C(=O)Cn1cc(-c2ccc(-c3cncc4ccccc34)cc2)cn1      > 100 µM

CC50 in this record for Nc1ncnc2c1ncn2CCOCP(=O)(O)O : > 100 µM

###

# test_method_notes: Neutral Red uptake cell viability assay, HFF
# condition_context: human, CC50, HFF (Fig 4F)
observation_type: CC50 (µM)
Use µM as the unit, but write only the number.

CC50 in this record for CC(C)Nc1nc2cc(Cl)c(Cl)cc2n1[C@H]1O[C@@H](CO)[C@H](O)[C@@H]1O : 163

###

# test_method_notes: in vitro
# condition_context: African green monkey
observation_type: CC50 at 4 d

CC50 at 4 d in this record for Nc1nc(O)c2ncn(COC(CO)CO)c2n1 : > 100 µM
